Attribution: ChEMBL document CHEMBL1201862

Target: Luciferin 4-monooxygenase (Photinus pyralis)
Sequence (P08659 whole entry): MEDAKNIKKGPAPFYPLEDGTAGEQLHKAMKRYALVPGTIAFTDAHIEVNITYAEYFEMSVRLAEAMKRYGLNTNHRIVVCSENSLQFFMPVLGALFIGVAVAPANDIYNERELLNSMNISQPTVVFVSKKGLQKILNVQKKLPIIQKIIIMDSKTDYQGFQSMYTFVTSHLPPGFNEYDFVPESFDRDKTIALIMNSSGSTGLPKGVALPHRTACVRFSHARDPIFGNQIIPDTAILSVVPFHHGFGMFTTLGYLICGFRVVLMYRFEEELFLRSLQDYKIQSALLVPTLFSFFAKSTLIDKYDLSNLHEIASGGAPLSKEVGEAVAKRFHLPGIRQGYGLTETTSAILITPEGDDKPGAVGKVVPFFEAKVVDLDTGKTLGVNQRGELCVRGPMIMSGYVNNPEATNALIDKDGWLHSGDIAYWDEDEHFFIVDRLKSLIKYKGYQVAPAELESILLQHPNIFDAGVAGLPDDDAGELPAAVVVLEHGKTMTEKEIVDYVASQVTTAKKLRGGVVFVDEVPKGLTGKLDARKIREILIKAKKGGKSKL
Assay: firefly luciferase enzyme inhibitors, dose response, biochemical, luminescence (AID 1891)
The source made the active and inactive calls.
Measured EC50, listed per entry.

>  <compound>
NC(CCCCc1ccccc1)c1cccc2ccccc12 (stereo unspecified)

>  <EC50>
> 112 µM (not active)

$$$$
>  <compound>
CCC(NCCc1ccccc1)=C1C(=O)NC(=O)NC1=O

>  <EC50>
> 112 µM (not active)

$$$$
>  <compound>
CCCC(=O)C1=C(N2CCCCC2)CC(C)(C)C(C(=O)OC)C1=O (stereo unspecified)

>  <EC50>
> 112 µM (not active)

$$$$
>  <compound>
Cc1cccc(OCC(=O)Nc2ccccc2-c2ccccc2)c1

>  <EC50>
73.8 µM (active)

$$$$
>  <compound>
O=C(O)c1ccc(N=Nc2c(O)[nH]c3ccccc23)cc1

>  <EC50>
0.365 µM (active)

$$$$
>  <compound>
CN(C)S(=O)(=O)c1ccc(Cl)c(NC(=O)COc2ccccc2[N+](=O)[O-])c1

>  <EC50>
> 112 µM (not active)

$$$$

====

Molecular target: Cytochrome P450 2C9 (Homo sapiens, UniProt P11712)
Sequence (P11712 whole entry): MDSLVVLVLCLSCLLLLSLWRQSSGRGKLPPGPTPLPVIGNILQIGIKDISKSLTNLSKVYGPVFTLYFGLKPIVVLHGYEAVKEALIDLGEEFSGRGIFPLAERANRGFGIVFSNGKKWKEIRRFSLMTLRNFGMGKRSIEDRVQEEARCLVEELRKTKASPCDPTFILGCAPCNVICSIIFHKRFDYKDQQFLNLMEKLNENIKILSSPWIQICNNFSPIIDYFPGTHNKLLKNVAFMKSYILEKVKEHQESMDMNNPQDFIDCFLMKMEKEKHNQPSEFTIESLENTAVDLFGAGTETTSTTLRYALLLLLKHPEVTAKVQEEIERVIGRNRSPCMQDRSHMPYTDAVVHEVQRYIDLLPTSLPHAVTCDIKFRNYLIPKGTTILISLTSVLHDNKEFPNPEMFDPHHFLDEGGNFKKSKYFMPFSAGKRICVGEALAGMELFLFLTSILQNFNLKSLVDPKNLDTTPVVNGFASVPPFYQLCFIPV
Active and inactive are the calls of the source.

>  <compound>
COc1cc(NC(=S)NC(=O)c2c(OC)cccc2OC)ccc1NC(=O)c1cccs1

>  <AC50>
1.41 µM (inconclusive)

$$$$
>  <compound>
COc1cc2c(c(OC)c1OC)-c1ccc(OC)c(=O)cc1[C@@H](NC(C)=O)CC2

>  <AC50>
3.16 µM (active)

$$$$
>  <compound>
COc1cc(Cl)c(C)cc1NC(=O)CNC(=O)Cn1cnc2ccccc2c1=O

>  <AC50>
10 µM (inconclusive)

$$$$
>  <compound>
c1cncc(-c2nnc3n2C2(CCCCC2)Cc2ccccc2-3)c1

>  <AC50>
31.6 µM (inconclusive)

$$$$
>  <compound>
Cc1ccc2c(c1)NCC(C(=O)NC1CCCCC1)O2 (centres undefined)

>  <AC50>
39.8 µM (inconclusive)

$$$$
>  <compound>
COc1ccc(-c2noc(CCCC(=O)NCCc3ccccc3)n2)cc1OC

>  <AC50>
4.47 µM (inconclusive)

$$$$
>  <compound>
Cc1nc([N+](=O)[O-])c(N2CCN(C)CC2)n1Cc1ccccc1

>  <AC50>
39.8 µM (inconclusive)

$$$$
>  <compound>
C=CCN1/C(=N/C(=O)CC)SC2CS(=O)(=O)CC21 (centres undefined)

>  <AC50>
11.2 µM (inconclusive)

$$$$
>  <compound>
CCOC(=O)c1cc2c(=O)n3ccccc3nc2n(CCOC)/c1=N\C(=O)C(C)(C)C

>  <AC50>
17.8 µM (inconclusive)

$$$$
>  <compound>
Cc1nc2c(ccc3nc(NC(=O)c4ccc(S(=O)(=O)N(C)C)cc4)sc32)s1

>  <AC50>
0.794 µM (inconclusive)

$$$$
>  <compound>
N#CCCn1c(=O)c(-c2cc(F)cc(F)c2)nc2cnc(Oc3cccc(Cl)c3)nc21

>  <AC50>
7.94 µM (inconclusive)

$$$$
>  <compound>
COn1c(SC(C)C)nc2ccccc2c1=O

>  <AC50>
17.8 µM (inconclusive)

$$$$
>  <compound>
COc1ccc(-c2nn3cnnc3s2)cc1OC

>  <AC50>
1.41 µM (inconclusive)

$$$$
>  <compound>
COC(=O)N1CCC2(CC1)CCN(C(c1ccccc1)c1ccccc1)CC2

>  <AC50>
39.8 µM (inconclusive)

$$$$

====

Assay: C. albicans growth with fluconazole, confirmation, fluorescence, retest (AID 2467)
Format: functional, cell-based
The source made the active and inactive calls.
readout name: EC50

>  <chemical structure>
COC(CN(C)C(=O)c1ccc2c(c1)NC(=O)c1ccccc1S2)OC

>  <measured result>
> 38 µM (not active)

$$$$
>  <chemical structure>
Fc1ccc(N/N=C/c2cccnc2)c(F)c1

>  <measured result>
> 38 µM (not active)

$$$$
>  <chemical structure>
CN1CCN(Cc2cc(COCc3ccccc3)c3cccnc3c2O)CC1

>  <measured result>
0.8 µM (active)

$$$$
>  <chemical structure>
CCn1c2ccccc2c2cc(NC(=O)C(C)C)ccc21

>  <measured result>
> 38 µM (not active)

$$$$
>  <chemical structure>
CCOc1cc(/C=N/NC(=O)c2cccnc2)ccc1OCC(N)=O

>  <measured result>
> 38 µM (not active)

$$$$

====

Measured AC50, listed per entry.
Biological target: DNA repair and recombination protein RAD54-like (Homo sapiens)
Sequence (Q92698 whole entry): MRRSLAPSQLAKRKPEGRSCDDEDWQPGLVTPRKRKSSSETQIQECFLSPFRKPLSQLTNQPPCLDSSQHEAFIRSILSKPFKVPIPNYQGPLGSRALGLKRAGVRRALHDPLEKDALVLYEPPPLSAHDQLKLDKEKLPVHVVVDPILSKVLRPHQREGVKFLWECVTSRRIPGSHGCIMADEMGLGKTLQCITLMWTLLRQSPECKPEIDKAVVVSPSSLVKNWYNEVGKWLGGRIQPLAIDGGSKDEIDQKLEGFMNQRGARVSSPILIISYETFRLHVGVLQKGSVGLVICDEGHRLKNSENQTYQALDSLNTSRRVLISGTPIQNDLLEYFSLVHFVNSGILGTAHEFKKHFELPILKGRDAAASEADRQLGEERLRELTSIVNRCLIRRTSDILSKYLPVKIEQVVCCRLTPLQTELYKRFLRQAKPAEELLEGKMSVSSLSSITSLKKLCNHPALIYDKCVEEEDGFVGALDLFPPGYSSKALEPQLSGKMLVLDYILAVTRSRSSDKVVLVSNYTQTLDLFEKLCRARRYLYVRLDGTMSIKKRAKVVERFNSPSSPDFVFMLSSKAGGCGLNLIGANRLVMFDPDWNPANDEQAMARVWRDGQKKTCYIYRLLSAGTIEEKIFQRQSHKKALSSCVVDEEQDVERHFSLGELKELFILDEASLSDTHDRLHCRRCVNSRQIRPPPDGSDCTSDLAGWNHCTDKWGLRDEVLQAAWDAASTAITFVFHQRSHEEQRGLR
Experiment: inhibitors of human RAD54 branch migration, confirmation, biochemical, fluorescence, cherry-picked samples, dose series (AID 651657)
Format: functional
Calls of active or inactive are those of the source.

>  <chemical structure>
Cc1ccc2nc3c(cc(C(=O)NCCN4CCOCC4)c(=N)n3CCCN3CCOCC3)c(=O)n2c1

>  <AC50>
29.5 µM (active)

$$$$
>  <chemical structure>
COc1cc2c3c(cccc3c1)C(=O)N(CCN1CCCC1)C2=O

>  <AC50>
2.16 µM (active)

$$$$
>  <chemical structure>
CCOC(=O)c1cnc2c(C)cc(C)cc2c1NCCCN1CCOCC1

>  <AC50>
5.48 µM (active)

$$$$
>  <chemical structure>
CN(C)CCNC(=O)c1cccc(-c2cnc3c(NC=O)cc(-c4ccc(F)cc4)cn23)c1

>  <AC50>
17.7 µM (active)

$$$$

====

System: Streptococcus sp. 'group A'
Assay: growth inhibition of control SK(-) GAS strain, dose response, counter-screen for streptokinase expression inhibitor project, luminescence, kanamycin, BacTiterGlo, confirmation (AID 1900)
Type: functional, organism-based
Details: Streptococcus sp. 'group A'
The source made the active and inactive calls.
Measured EC50, listed per entry.
readout name: EC50

>  <chemical structure>
Cc1ccn2c(NC3CCCC3)c(-c3ccccn3)nc2c1

>  <measured result>
3.14 µM (active)

$$$$
>  <chemical structure>
CSc1ccc(S(=O)(=O)NCC(=O)OCC(=O)N2CCCC2=O)cc1[N+](=O)[O-]

>  <measured result>
4.7 µM (active)

$$$$
>  <chemical structure>
Cc1cccc(C(=O)NNC(=O)c2c(O)c3ccccc3n(C)c2=O)c1

>  <measured result>
4.62 µM (active)

$$$$
>  <chemical structure>
Clc1ccccc1Sc1ccc(-c2ccccn2)s1

>  <measured result>
17.6 µM (active)

$$$$
>  <chemical structure>
Cc1nc(S)c2c(n1)-c1ccccc1CC21CCCCC1

>  <measured result>
1.15 µM (active)

$$$$
>  <chemical structure>
Clc1ccc2c(N/N=C/c3ccc(Br)cc3)ccnc2c1

>  <measured result>
2.54 µM (active)

$$$$
>  <chemical structure>
CCc1c(O)n(C2CCCCC2)c(SCC(=O)Nc2nc3ccccc3s2)nc1=O

>  <measured result>
11.8 µM (active)

$$$$

====

Target: DNA repair protein RAD52 homolog (Homo sapiens)
Sequence (P43351 whole entry): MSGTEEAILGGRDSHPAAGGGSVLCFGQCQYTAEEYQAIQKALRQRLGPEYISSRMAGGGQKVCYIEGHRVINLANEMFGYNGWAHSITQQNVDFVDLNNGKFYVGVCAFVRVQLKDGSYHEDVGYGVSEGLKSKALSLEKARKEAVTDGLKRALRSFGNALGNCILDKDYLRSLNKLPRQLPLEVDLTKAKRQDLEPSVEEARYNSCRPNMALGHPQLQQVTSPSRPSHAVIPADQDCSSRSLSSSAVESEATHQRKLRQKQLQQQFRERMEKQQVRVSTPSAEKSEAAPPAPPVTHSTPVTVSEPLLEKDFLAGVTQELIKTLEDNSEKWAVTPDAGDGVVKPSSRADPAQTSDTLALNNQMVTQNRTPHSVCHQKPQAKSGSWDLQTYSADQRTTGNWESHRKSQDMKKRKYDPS
Type: functional, biochemical
The source made the active and inactive calls.

>  <chemical structure>
CCN(CC)CCNc1ncnc2c1sc1nc(N3CCOCC3)c3c(c12)CCCC3

>  <AC50>
4.88 µM (active)

$$$$
>  <chemical structure>
CN(C)CCCOc1ccc(-c2cc3nc(NCc4cccnc4)n(C)c(=O)c3s2)cn1

>  <AC50>
11.2 µM (active)

$$$$
>  <chemical structure>
C[C@]12CC[C@H](O)C[C@@H]1CC[C@@H]1[C@@H]2CC[C@]2(C)[C@@H](OC(=O)[C@H](N)CCCCN)CC[C@@H]12

>  <AC50>
1.27 µM (active)

$$$$
>  <chemical structure>
COc1cc(NCCCCCCN)c2ncccc2c1OC

>  <AC50>
0.87 µM (active)

$$$$
>  <chemical structure>
CN(C)CCNC(=O)c1cccc(-c2cnc3c(NC=O)cc(-c4ccc(F)cc4)cn23)c1

>  <AC50>
3.96 µM (active)

$$$$
>  <chemical structure>
CCN(CCN(C)C)C(=O)c1ccc2c(c1NCCO)C(=O)c1ccccc1C2=O

>  <AC50>
6.06 µM (active)

$$$$
>  <chemical structure>
CCOC(=O)c1cnc2c(C)cc(C)cc2c1NCCCN1CCOCC1

>  <AC50>
11.4 µM (active)

$$$$
>  <chemical structure>
COc1cc2c3c(cccc3c1)C(=O)N(CCN1CCCC1)C2=O

>  <AC50>
5.72 µM (active)

$$$$
